Measured values drawn from ChEMBL document CHEMBL4513216 for this set.

experiment: Toxicity liver stage against HepG2, at 10uM; assay type: cell-based; parameters: test concentration 10 uM, cell line HepG2-A16-CD81EGFP; details: human, HepG2-A16-CD81EGFP cells; read-out: INHIBITION
Below: a set of entries, each annotated with reported cytotoxicity at 10 µM.

Worked examples follow.
> print(dat)
                                   compound  result
1     Cc1cn2nc(N3CCN(Cc4c(C)noc4C)CC3)sc2n1  -8.81%
2  OC1(CN2CCCC2)COCCN(c2ncnc3[nH]cnc23)C1 (stereo not drawn)  0.458%
3  COc1ccc(CN(Cc2c[nH]cn2)CC2CCCO2)c(OC)c1 (stereo not drawn)    -26%
4  Cn1cc(CN2CCOC3(CCCN(c4cccc(F)c4)C3)C2)cn1 (stereo not drawn)  -77.1%
5  Cc1nn(C)c(NC(=O)C2SCCc3ccccc32)c1C (stereo not drawn)   45.8%

Please report cytotoxicity at 10 µM for the following compound: NC(=O)c1ccc(NC(=O)CCN2CCCC(N3CCCC3)C2)cc1 (stereo not drawn)
-8.59%

Please report cytotoxicity at 10 µM for the following compound: CC1CN(S(=O)(=O)c2ccc(C(=O)NCC(F)F)cc2)CCCO1 (stereo not drawn)
4.05%

Please report cytotoxicity at 10 µM for the following compound: CCCC(=O)N1CCC(Cc2ccccc2-c2ccccc2)(C(N)=O)C1 (stereo not drawn)
-23.6%

###

assay: Toxicity liver stage against HepG2, at 10uM; assay type: cell-based; design: test concentration 10 uM, cell line HepG2-A16-CD81EGFP; conditions: human, HepG2-A16-CD81EGFP cells; read-out: INHIBITION
propertyLabel: cytotoxicity at 10 µM (%)
Numbers only; they are read as %.

Worked examples follow.
> print(dat)
                                   molecule  numericreadout
1  CCOC(C)C(=O)Nc1cc(S(=O)(=O)NC2CC2)ccc1F (configuration not stated)           -7.51
2  CCc1nc(C2CCCN2C(=O)CCc2c(C)noc2Cl)no1 (configuration not stated)           -7.07
3           CCOc1ccccc1N1CCN(c2nnc(C)o2)CC1           -10.9
4  Cc1ccc2ncccc2c1CN1CC[C@H](N(C)C)[C@H](CCC(=O)O)C1            -148
5  COCc1ccc(C(=O)N2CCN(CC=C(C)C)[C@@H]3CS(=O)(=O)C[C@@H]32)o1            17.2
6       Cc1occc1C(=O)NCCOc1ccc(C(F)(F)F)cn1           -7.62

Now, please, on to the next molecule.
Please report cytotoxicity at 10 µM for the following molecule: Cc1ccc(C(C)C(=O)N2CCCN(Cc3cscn3)CC2)cc1 (configuration not stated)
-5.31

###

Below: a set of entries, each annotated with reported cytotoxicity at 10 µM.
test: Toxicity liver stage against HepG2, at 10uM; assay type: cell-based; set-up: test concentration 10 uM, cell line HepG2-A16-CD81EGFP; details: human, HepG2-A16-CD81EGFP cells; read-out: INHIBITION
Numbers only; they are read as %.

> print(dat)
                                   molecule          propertylabel  readoutunits  numericreadout
1         CSc1ccc(NC(=O)NCc2nncn2C2CC2)cc1F  cytotoxicity at 10 µM             %               0
2        O=C(c1nc2c(o1)CN(CC1CC1)C2)N1CCCC1  cytotoxicity at 10 µM             %            -163
3  Cc1nc(-c2ccc(C(=O)O)cc2)cc(C2CCN(C(C)C)CC2)n1  cytotoxicity at 10 µM             %           -6.69

Please report cytotoxicity at 10 µM for the following molecule: CN(CCc1cnn(C)c1)C(=O)C1COc2ccccc2C1 (stereo unspecified)
1.33

Please report cytotoxicity at 10 µM for the following molecule: Cc1ccc(C)c(S(=O)(=O)CCN2CCCC2Cn2cncn2)c1 (stereo unspecified)
-8.5

Please report cytotoxicity at 10 µM for the following molecule: `FC(F)CN1CCC(NCCc2ccc(-n3cccn3)cc2)CC1`
14.5

Please report cytotoxicity at 10 µM for the following molecule: CCS(=O)(=O)N1CCN(C(C)c2ccccc2OC)CC1 (stereo unspecified)
4.55

Please report cytotoxicity at 10 µM for the following molecule: `COc1ccc(C)cc1-n1c(COC(C)C)n[nH]c1=O`
6.42
